# testTarget: CCR2 (Homo sapiens)
# Construct: THP-1 human monocytic leukemic cell line, which expresses endogenous CCR2; endogenous in cells; host or cells: human peripheral blood mononuclear cells, human monocytes or THP-1 cells
# Sequence (P41597 1-360 isoform P41597-2): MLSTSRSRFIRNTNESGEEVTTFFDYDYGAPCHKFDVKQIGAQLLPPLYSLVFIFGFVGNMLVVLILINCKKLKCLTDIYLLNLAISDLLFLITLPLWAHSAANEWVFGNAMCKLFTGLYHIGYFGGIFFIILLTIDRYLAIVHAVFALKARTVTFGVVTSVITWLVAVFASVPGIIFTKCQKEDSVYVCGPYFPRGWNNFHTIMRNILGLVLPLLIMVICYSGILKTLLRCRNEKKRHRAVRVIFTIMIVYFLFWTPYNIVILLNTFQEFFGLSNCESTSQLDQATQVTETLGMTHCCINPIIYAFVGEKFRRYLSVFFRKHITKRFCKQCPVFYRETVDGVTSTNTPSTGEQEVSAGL
# procedureSummary: CCR2 binding: antagonism of 125I-MCP-1 binding (human PBMC / THP-1 whole cell)
# conditionContext: n = 1 unless otherwise noted
measureName: Ki (nM)

# compound, testTarget, measureName, assayResult
records = [
    ("Cc1cccc([C@@]2(C)C[C@H](C)CC=C2C(=O)O)c1 (racemic)", "CCR2 (Homo sapiens)", "Ki", 930),
]

[A] C[C@@H]1CC=C(C(=O)NS(=O)(=O)c2ccccc2)[C@@](C)(c2ccc(Cl)c(Cl)c2)C1 (racemic)
[B] C[C@@H]1CC=C(C(=O)O)[C@@](C)(c2ccc3ccccc3c2)C1 (racemic)
query: Lab notebook, comparison: A versus B , higher Ki goes to which? Mark your answer with the label of the selected entry.
result: B
(B: 320 nM, A: 150 nM)

[P] CC(C)(C)OC[C@@H]1CC=C(C(=O)O)[C@@](C)(c2ccc(Cl)c(C(F)(F)F)c2)C1 (racemic)
[Q] C[C@H]1CC=C(C(=O)O)[C@](C)(c2ccc(Cl)c(Cl)c2)C1 [Example 4-02a]
query: For P and Q , which recorded Ki is lower? Pick one and reply with its label.
result: Q

[1] C[C@@H]1CC=C(C(=O)O)[C@@](C)(c2ccccc2)C1 (racemic)
[2] C[C@@H]1CC=C(C(=O)O)[C@@](C)(c2cccc(C(F)(F)F)c2)C1 (racemic)
query: Look at 1 and 2 . Which one has the lower recorded Ki number? Mark your selection by writing its label.
result: 2

* * *

# testTarget: CCR2 (Homo sapiens, UniProt P41597)
# Construct: THP-1 human monocytic leukemic cell line, which expresses endogenous CCR2; endogenous in cells; host or cells: human peripheral blood mononuclear cells, human monocytes or THP-1 cells
# procedureSummary: CCR2 binding: antagonism of 125I-MCP-1 binding (human PBMC / THP-1 whole cell)
# conditionContext: n = 1 unless otherwise noted
measureName: Ki (nM)

# compound, scaleUnit, Ki
rows = [
    ("CC1(c2ccc(Cl)c(Cl)c2)CCCC=C1C(=O)O (racemic)", "nM", 440),
]

[a] CC(=O)NC[C@@H]1CC=C(C(=O)O)[C@@](C)(c2ccc(Cl)c(C(F)(F)F)c2)C1 (racemic)
[b] CC1=C(C(=O)O)[C@@](C)(c2ccc(Cl)c(Cl)c2)C[C@H](C)C1 (racemic)
[c] C[C@@H]1CC=C(C(=O)O)[C@@](C)(c2cc(Cl)cc(Cl)c2)C1 (racemic)
query: Ranking field: Ki; order: falling. Form field (ranking): labels in requested order.
result: a, b, c

* * *

# testTarget: CCR2 (Homo sapiens)
# Construct: THP-1 human monocytic leukemic cell line, which expresses endogenous CCR2; endogenous in cells; host or cells: human peripheral blood mononuclear cells, human monocytes or THP-1 cells
# procedureSummary: CCR2 binding: antagonism of 125I-MCP-1 binding (human PBMC / THP-1 whole cell)
# conditionContext: n = 1 unless otherwise noted
measureName: Ki (nM)

The following compounds have reported results that may help.
# compound, scaleUnit, Ki
data = [
    ("CC1=C(C(=O)O)[C@@](O)(c2ccc(Cl)c(Cl)c2)C[C@H](C)C1 (racemic)", "nM", 1000),
    ("Cc1ccc(C)c([C@@]2(C)C[C@H](C)CC=C2C(=O)O)c1 (racemic)", "nM", 550),
    ("CC1(c2cccc(Cl)c2)CCCC=C1C(=O)O (racemic)", "nM", 3000),
    ("C[C@@H]1CC=C(C(=O)O)[C@@](C)(c2ccc(Cl)c(Cl)c2)C1 [Example 4-02b]", "nM", 5800),
    ("Cc1ccc([C@@]2(C)C[C@H](C)CC=C2C(=O)O)cc1 (racemic)", "nM", 2600),
]

[a] Cc1cc([C@@]2(C)C[C@H](C)CC=C2C(=O)O)ccc1F (racemic)
[b] C[C@@H]1CC=C(C(=O)O)[C@@](C)(c2ccc(F)c(F)c2)C1 (racemic)
[c] C[C@@H]1CC=C(C(=O)O)[C@@](C)(c2ccc(F)cc2)C1 (racemic)
query: Ordering: ascending Ki. Give the labels in the order specified.
result: c, a, b

[A] C[C@@H]1CC=C(C(=O)O)[C@@](C)(c2cccc(F)c2)C1 (racemic)
[B] C[C@H]1CC=C(C(=O)O)[C@](C)(c2ccc(Cl)c(C(F)(F)F)c2)C1 [Example 4-01a]
query: Could you tell me which of A and B has the lower Ki reading? State your choice using its label.
result: B

* * *

# testTarget: CCR2 (Homo sapiens)
# Construct: THP-1 human monocytic leukemic cell line, which expresses endogenous CCR2; endogenous in cells; host or cells: human peripheral blood mononuclear cells, human monocytes or THP-1 cells
# procedureSummary: CCR2 binding: antagonism of 125I-MCP-1 binding (human PBMC / THP-1 whole cell)
# conditionContext: n = 1 unless otherwise noted
measureName: Ki (nM)

[1] C[C@@H]1CC=C(C(=O)O)[C@@](C)(c2ccc(Cl)c(C(F)(F)F)c2)C1 [Example 4-01b]
[2] C[C@]1(c2ccc(Cl)c(C(F)(F)F)c2)C[C@H](CO)CC=C1C(=O)O (racemic)
[3] Cc1ccc([C@@]2(C)C[C@H](C)CC=C2C(=O)O)cc1C (racemic)
[4] Cc1ccc([C@@]2(C)C[C@H](C)CC=C2C(=O)O)cc1Cl (racemic)
query: Reorder: Ki, max to min. // respond by listing labels in the order requested
result: 1, 3, 2, 4

* * *

# testTarget: CCR2 (Homo sapiens, UniProt P41597)
# Construct: THP-1 human monocytic leukemic cell line, which expresses endogenous CCR2; endogenous in cells; host or cells: human peripheral blood mononuclear cells, human monocytes or THP-1 cells
# Sequence (P41597 1-360 isoform P41597-2): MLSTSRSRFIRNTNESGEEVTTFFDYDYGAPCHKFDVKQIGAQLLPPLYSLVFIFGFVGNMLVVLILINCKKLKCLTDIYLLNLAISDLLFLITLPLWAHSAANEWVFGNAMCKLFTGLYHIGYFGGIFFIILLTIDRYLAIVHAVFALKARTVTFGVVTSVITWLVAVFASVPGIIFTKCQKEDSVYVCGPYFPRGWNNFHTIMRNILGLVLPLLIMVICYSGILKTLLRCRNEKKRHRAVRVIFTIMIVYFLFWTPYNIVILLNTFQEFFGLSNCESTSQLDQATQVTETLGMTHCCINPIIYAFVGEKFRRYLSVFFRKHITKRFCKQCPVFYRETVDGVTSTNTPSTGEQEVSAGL
# procedureSummary: CCR2 binding: antagonism of 125I-MCP-1 binding (human PBMC / THP-1 whole cell)
# conditionContext: n = 1 unless otherwise noted
# Method: Antagonism of MCP-1 Binding to Human PBMC Millipore filter plates (#MABVN1250) are treated with 100 μl of binding buffer (0.5% bovine serum albumin, 20 mM HEPES buffer and 5 mM magnesium chloride in RPMI 1640 media) for thirty minutes at room temperature. […] The plastic skirt is removed from the plate, the plate allowed to air dry, the wells punched out and counted. […]
measureName: Ki (nM)

Here are 4 compounds together with their reported answers.
# compound, assayResult
rows = [
    ("Cc1ccc([C@@]2(C)C[C@H](C)CC=C2C(=O)O)c2ccccc12 (racemic)", 250),
    ("C[C@@H]1CC=C(C(=O)O)[C@@](C)(c2cc(C(F)(F)F)cc(C(F)(F)F)c2)C1 (racemic)", 740),
    ("C[C@@H]1CC=C(C(=O)O)[C@@](C)(c2cccc3ccccc23)C1 (racemic)", 140),
    ("C[C@@H]1CC=C(C(=O)NS(=O)(=O)C(F)(F)F)[C@@](C)(c2ccc(Cl)c(Cl)c2)C1 (racemic)", 6600),
]

[P] C[C@@H]1CC=C(C(=O)O)[C@@](C)(c2cccc(-c3ccccc3)c2)C1 (racemic)
[Q] Cc1cccc([C@@]2(C)C[C@H](C)CC=C2C(=O)O)c1C (racemic)
[R] COc1ccccc1C1(C)CCCC=C1C(=O)O (centres unmarked)
[S] C[C@@H]1CC=C(C(=O)O)[C@@](C)(c2ccc(Cl)c(Cl)c2)C1 (racemic) [Example 1-11]
[T] C[C@H]1CCC(C(=O)O)[C@](C)(c2cccc(C(F)(F)F)c2)C1 (mixture of isomers)
query: Descending sort on Ki required. Lab note: record answer as labels in requested order.
result: R, T, Q, P, S
(R: 10000 nM, T: 5800 nM, Q: 3700 nM, P: 250 nM, S: 80 nM)
